- Tested on: MDCK-II
- test.summary: Apparent permeability from basolateral to apical side of MDCK2 cells over expressing MDR1 at 5 uM after 1 hr in presence of 25 uM LSN335984
- Type: functional, cell-based
- assay.setup: Canis lupus familiaris
Lab note: cut-off is 20%. Strictly less in permeability is Satisfied. Exactly 20% or more is Not satisfied.

# smiles, cat
records = [
    ("CN(C)c1ccc(-c2cc(-c3ccc(N)cc3)[s+]c(-c3ccc(N(C)C)cc3)c2)cc1.F[P-](F)(F)(F)(F)F", "Satisfied"),
    ("CN(C)c1ccc(-c2cc(-c3ccc(N)cc3)[se+]c(-c3ccc(N)cc3)c2)cc1.F[P-](F)(F)(F)(F)F", "Satisfied"),
    ("CCCc1cc(-c2ccc(N(C)C)cc2)cc(-c2ccc(N(C)C)cc2)[s+]1.[I-]", "Satisfied"),
    ("CN(C)c1ccc(-c2cc(-c3ccccc3)[se+]c(-c3ccc(N)cc3)c2)cc1.F[P-](F)(F)(F)(F)F", "Satisfied"),
    ("CN(C)c1ccc(-c2cc(-c3ccc(N(C)C)cc3)[se+]c(C(C)(C)C)c2)cc1.[I-]", "Not satisfied"),
    ("Cc1cc(C)c(-c2cc(-c3ccc(N(C)C)cc3)[te+]c(-c3ccc(N(C)C)cc3)c2)c(C)c1.F[P-](F)(F)(F)(F)F", "Satisfied"),
    ("CN(C)c1ccc(-c2cc(-c3ccc(N(C)C)cc3)[s+]c(C(C)(C)C)c2)cc1.[I-]", "Not satisfied"),
    ("Cc1cc(-c2ccc(N(C)C)cc2)cc(-c2ccc(N(C)C)cc2)[s+]1.[I-]", "Satisfied"),
]

* * *

Quick reference for Activity among some molecules
- Species on record: Mus musculus
- test.summary: Inhibition of verapamil-induced specific ATPase activity in lipid activated mouse P-glycoprotein mdr3 cys-less mutant assessed as ATP hydrolysis per ug of protein at 100 uM
observation.type: Activity (nmol/min)

# smiles, observation.type, reported.measurement
measured = [
    ("CCCc1cc(-c2ccc(N(C)C)cc2)cc(-c2ccc(N(C)C)cc2)[s+]1.[I-]", "Activity", 1.37),
    ("Cc1cc(C)c(-c2cc(-c3ccc(N(C)C)cc3)[s+]c(-c3ccc(N(C)C)cc3)c2)c(C)c1", "Activity", 0.3),
    ("Cc1cc(-c2ccc(N(C)C)cc2)cc(-c2ccc(N(C)C)cc2)[s+]1.[I-]", "Activity", 0.48),
    ("Cc1cc(C)c(-c2cc(-c3ccc(N(C)C)cc3)[te+]c(-c3ccc(N(C)C)cc3)c2)c(C)c1.F[P-](F)(F)(F)(F)F", "Activity", 0.44),
    ("CN(C)c1ccc(-c2cc(-c3ccc(N)cc3)[s+]c(-c3ccc(N(C)C)cc3)c2)cc1.F[P-](F)(F)(F)(F)F", "Activity", 0.93),
    ("CCc1cc(-c2ccc(N(C)C)cc2)cc(-c2ccc(N(C)C)cc2)[s+]1", "Activity", 0.74),
    ("CN(C)c1ccc(-c2cc(-c3ccc(N(C)C)cc3)[s+]c(C(C)(C)C)c2)cc1.[I-]", "Activity", 0.7),
]

* * *

- Organism: Mus musculus
- test.summary: Inhibition of verapamil-induced residual ATPase activity in lipid activated mouse P-glycoprotein mdr3 cys-less mutant assessed as ATP hydrolysis per ug of protein

# smiles, unit.name, Activity
rows = [
    ("CCCc1cc(-c2ccc(N(C)C)cc2)cc(-c2ccc(N(C)C)cc2)[s+]1.[I-]", "nmol/min", 2.5),
    ("Cc1cc(C)c(-c2cc(-c3ccc(N(C)C)cc3)[s+]c(-c3ccc(N(C)C)cc3)c2)c(C)c1", "nmol/min", 0),
    ("CN(C)c1ccc(-c2cc(-c3ccc(N(C)C)cc3)[s+]c(C(C)(C)C)c2)cc1.[I-]", "nmol/min", 1.4),
    ("CN(C)c1ccc(-c2cc(-c3ccc(N)cc3)[se+]c(-c3ccc(N)cc3)c2)cc1.F[P-](F)(F)(F)(F)F", "nmol/min", 2.5),
]

* * *

- test.summary: Octanol-water partition coefficient, log P after 5 hrs by shake flask method
- Format: physicochemical
// NB: equality with 2 counts as N; only logP at 5 h strictly below is Y

# smiles, cat
data = [
    ("Cc1cc(C)c(-c2cc(-c3ccc(N(C)C)cc3)[te+]c(-c3ccc(N(C)C)cc3)c2)c(C)c1.F[P-](F)(F)(F)(F)F", "N"),
    ("CCc1cc(-c2ccc(N(C)C)cc2)cc(-c2ccc(N(C)C)cc2)[s+]1", "Y"),
    ("c1ccc(-c2cc(-c3ccc(N4CCOCC4)cc3)cc(-c3ccc(N4CCOCC4)cc3)[s+]2)cc1", "N"),
    ("CN(C)c1ccc(-c2cc(-c3ccc(N4CCOCC4)cc3)[se+]c(-c3ccc(N4CCOCC4)cc3)c2)cc1", "N"),
    ("Cc1cc(C)c(-c2cc(-c3ccc(N(C)C)cc3)[s+]c(-c3ccc(N(C)C)cc3)c2)c(C)c1", "N"),
    ("CN(C)c1ccc(-c2cc(-c3ccc(N(C)C)cc3)[s+]c(C(C)(C)C)c2)cc1.[I-]", "Y"),
    ("Nc1ccc(-c2cc(-c3ccc(N4CCOCC4)cc3)cc(-c3ccc(N4CCOCC4)cc3)[s+]2)cc1", "N"),
    ("Cc1cc(-c2ccc(N(C)C)cc2)cc(-c2ccc(N(C)C)cc2)[s+]1.[I-]", "Y"),
    ("CN(C)c1ccc(-c2cc(-c3ccc(N(C)C)cc3)[se+]c(C(C)(C)C)c2)cc1.[I-]", "Y"),
    ("CN(C)c1ccc(-c2cc(-c3ccccc3)[se+]c(-c3ccc(N)cc3)c2)cc1.F[P-](F)(F)(F)(F)F", "Y"),
    ("Cc1cc(-c2ccc(N(C)C)cc2)[s+]c(-c2ccc(N(C)C)cc2)c1", "Y"),
]
